Reference for the values: patent US20250034266A1

- target: T1, human CCR8 (human, UniProt P51685 1-355)
- T1 construct: whole, on cells; In the β-arrestin assay CCR8 is fused to the ProLink (PK) tag; also called hCCR8; CHO-K1-human CCR8
- T1 sequence (P51685 whole entry, the tested form may be a part): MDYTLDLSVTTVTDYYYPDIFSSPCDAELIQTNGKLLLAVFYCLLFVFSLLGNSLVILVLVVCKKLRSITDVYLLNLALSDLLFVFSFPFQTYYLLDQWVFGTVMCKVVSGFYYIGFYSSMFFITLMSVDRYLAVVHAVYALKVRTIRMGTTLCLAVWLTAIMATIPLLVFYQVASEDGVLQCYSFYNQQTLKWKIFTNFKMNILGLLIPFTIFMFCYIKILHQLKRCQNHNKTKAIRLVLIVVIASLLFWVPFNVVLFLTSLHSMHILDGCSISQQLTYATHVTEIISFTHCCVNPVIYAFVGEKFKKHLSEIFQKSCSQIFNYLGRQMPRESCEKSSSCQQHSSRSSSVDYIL
- test: FACS competition, hybridoma supernatant with 4 nM AF647-human CCL1 on human CCR8 cells
Entries and their Inhibition Rate (%) values follow.
assayReadout: Inhibition Rate (%)

binder="234G9C12 (antibody, V domains shown, Murine hybridoma antibody; also called 234G4C12) VH: DVQLQESGPGLVKPSQSLSLTCSVTGYSITSGYYWNWIRQFPGNKLEWMGYTSYDGSNNYNPSFKNRISITRDISKNQFFLKLNSVTTEDTATYYCARQIGLRRGAMDHWGQGTSVTVSS VL: DIQMTQSSSYLSVSLGGRVTITCKASDHINNWLAWYQQKPGNAPRLLISGSTSLRAGVASRFSGSGSGKDYTLTITSLQTEDVATYYCQQYWGIPFTFGGGTKLEIK" value=88.9
binder="153D4G2 (antibody, V domains shown, Murine hybridoma antibody; also called 153D3G2; 1531D4G2) VH: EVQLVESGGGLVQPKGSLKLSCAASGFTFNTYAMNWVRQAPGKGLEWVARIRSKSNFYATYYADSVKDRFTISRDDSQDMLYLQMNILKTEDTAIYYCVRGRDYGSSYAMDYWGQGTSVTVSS VL: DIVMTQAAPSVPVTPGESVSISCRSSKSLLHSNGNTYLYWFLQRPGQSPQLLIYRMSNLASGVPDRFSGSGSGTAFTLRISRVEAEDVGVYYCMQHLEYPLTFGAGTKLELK" value=99.1
binder="164G10D6 (antibody, V domains shown, Murine hybridoma antibody; also called 164G10C6) VH: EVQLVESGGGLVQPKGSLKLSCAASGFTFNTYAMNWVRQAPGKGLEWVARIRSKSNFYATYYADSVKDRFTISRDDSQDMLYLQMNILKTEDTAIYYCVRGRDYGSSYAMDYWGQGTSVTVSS VL: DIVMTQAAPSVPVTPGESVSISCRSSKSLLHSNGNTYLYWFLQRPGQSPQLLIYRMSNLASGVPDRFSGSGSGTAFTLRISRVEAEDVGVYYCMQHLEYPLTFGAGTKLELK" value=99.4
binder="149F2C10 (antibody, V domains shown, also called 1491F2C0) VH: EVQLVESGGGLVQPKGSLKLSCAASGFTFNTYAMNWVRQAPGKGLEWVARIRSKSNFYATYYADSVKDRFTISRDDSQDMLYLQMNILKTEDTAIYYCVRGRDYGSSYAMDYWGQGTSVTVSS VL: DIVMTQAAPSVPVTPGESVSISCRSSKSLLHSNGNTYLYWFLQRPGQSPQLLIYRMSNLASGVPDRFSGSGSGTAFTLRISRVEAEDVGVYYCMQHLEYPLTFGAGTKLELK" value=99.2
binder="191E12H8 (antibody, V domains shown, Murine hybridoma antibody) VH: DVQLQESGPGLVKPSQSLSLTCSVTGYSITSGYYWNWIRQFPGNKLEWMGYISYDGSNNYNPSLKNRISITRDISKNQFFLKLNSVTTEDTATYYCARQIGLRRGAMDYWGQGTSVTVSS VL: DIQMTQSSSYLSVSLGGRVTITCKASDHINTWLAWYQQKPGNAPRLLISGSTSLKAGVASRFSGSGSGKDYTLTITSLQTEDVATYYCQQYWGIPFTFGGGTKLEIK" value=84.8
binder="204A2G12 (antibody, V domains shown, Murine hybridoma antibody) VH: DVQLQESGPGLVKPSQSLSLTCSVTGYSITSGYYWNWIRQFPGNKLEWMGYISYDGTNNYNPSLKNRISITRDTSKNQFFLKLTSVTTEDTATYYCARQVGLRRAWFAYWGQGTLVTVSA VL: DIQMTQSSSFLSVSLGGRVTITCKASDHINYWLAWYQQKPGNAPRLLISGATSLETGVPSRFSGSGSGKDYTLTITSLQNEDVATYYCHQYWSTPTFGSGTKLEIK" value=94.7
binder="348E2D11 (antibody, V domains shown, Murine hybridoma antibody) VH: QVQLVETGGGLVRPGNSLKLSCVTSGFSFSNYRMHWLRQPPGKRLEWIAVITVKSDNYGANYAESVKGRFTISRDDSKSSVYLQMNRLREEDTATYYCSSLGRVAYWGQGTLVTVSA VL: DIVMTQSQKFMFTSVGDRVSVTCKASQNVDTNVVWYQQKPGQSPKALIYSASSRYSGVPDRFTGSGSGTDFTLTISNVQSEDLAEYFCQQHNSFPLTFGAGTKLELI" value=100
binder="499B1A5 (antibody, V domains shown, Murine hybridoma antibody (supernatant)) VH: EVQLVESGGGLVQPKGSLKLSCAASGFTFNTYAMNWVRQAPGKGLEWVARIRSKSNNYATYYADSVKDRFTISRDDSQSMLYLQMNNLKTEDTAMYYCVRHGRSGYLYAMDYWGQGTSVTVSS VL: DIVMTQAAFSNPVTLGTSASISCRSSKSLLHSNGITYLYWYLQKPGQSPQLLIYQMSNLASGVPDRFSSSGSGTDFTLRISRVEAEDVGVYYCAQSLELPLTFGAGTKLELK" value=95.1
binder="160D1E3 (antibody, V domains shown, Murine hybridoma antibody) VH: EVQLVESGGGLVQPKGSLKLSCAASGFTFNTYAMNWVRQAPGKGLEWVARIRSKSNYYATYYADSVKDRFTISRDDSQDMLYLQMNNLKTEDTAIYYCVRGRDYGSSYAMDYWGQGTSVTVSS VL: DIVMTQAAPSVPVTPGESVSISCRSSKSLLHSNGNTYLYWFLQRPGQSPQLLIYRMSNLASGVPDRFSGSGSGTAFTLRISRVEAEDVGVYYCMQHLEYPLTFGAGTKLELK" value=99.1
binder="262C2G7 (antibody, V domains shown, Murine hybridoma antibody) VH: DVHLQESGPGLVKPSQSLSLTCSVTGYSITSGYYWNWIRQFPGNKLEWMGYISYDGSNNYNPSLKNRISITRDISKNQFFLKLNSVTTEDTATYYCARQIGLRRGAMDYWGQGTSVTVSS VL: DIQMTQSSSYLSVSLGGRVTITCKASDHINNWLAWYQQKPGNAPRLLISGSTSLKAGVASRFSGSGSGKDYTLTITSLQTEDVATYYCQQYWGIPFTFGGGTKLEIK" value=92.4
binder="273H2G6 (antibody, V domains shown, Murine hybridoma antibody) VH: DVQLQESGPGLVKPSQSLSLTCSVTGYSITSGYYWNWIRQFPGNKLEWMGYISYDGSNNYNPSLKNRISITRDISKNQFFLKLNSVTTEDTATYYCARQVGLRRGAMDYWGQGTSVTVSS VL: DIQMTQSSSYLSVSLGGRVTITCKASDHINNWLAWYQQKPGNAPRLLISGSTSLKAGVASRFSGSGSGKDYTLSITSLQTEDVATYYCQQYWSIPYTFGGGTKLEIK" value=90.2
